FYI, the data here is from paper PMC12254823.

# assay info: in vitro
# protocol conditions: dog
// CC50 lookup, one value per entry

Please review the following examples before continuing.
GET /values?readout=CC50&item= "S=C(NCc1cccc2cn[nH]c12)Nc1cccc(Cl)c1"
> 25 µM

GET /values?readout=CC50&item= "O=C(CNCc1ccccc1)Nc1ccccc1C(=O)NCc1cccc2cn[nH]c12"
> 50 µM

GET /values?readout=CC50&item= "Fc1ccc(NC(=S)NCc2cccc3cn[nH]c23)cc1"
> 100 µM

GET /values?readout=CC50&item= "Cc1ccc(NCC(=O)Nc2ccccc2C(=O)NCc2cccc3cn[nH]c23)cc1"
> 100 µM

GET /values?readout=CC50&item= "O=C(/C=C/c1ccc(Br)cc1)NCc1cccc2cn[nH]c12"
> 100 µM

GET /values?readout=CC50&item= "FC(F)(F)c1ccc(NC(=S)NCc2cccc3cn[nH]c23)cc1"
> 100 µM

GET /values?readout=CC50&item= "Cc1cccc(NCC(=O)Nc2ccccc2C(=O)NCc2cccc3cn[nH]c23)c1"
> 100 µM

GET /values?readout=CC50&item= "O=C(CN1CCSCC1)Nc1ccccc1C(=O)NCc1cccc2cn[nH]c12"
> 100 µM

GET /values?readout=CC50&item= "S=C(NCc1cccc2cn[nH]c12)Nc1ccccc1"
> 100 µM

GET /values?readout=CC50&item= "S=C(NCc1cccc2cn[nH]c12)Nc1ccc(Br)cc1"
> 100 µM

Further cases:
GET /values?readout=CC50&item= "S=C(NCc1cccc2cn[nH]c12)Nc1ccc(I)cc1"
> 100 µM
